- EXPERIMENT SUMMARY: in vitro
- CONDITION DETAILS: rat, gh3-tre-luc cells, AC50 (uM) modified / 1000
Structures can show the parent of a compound that is named as a salt.
ATTRIBUTE MEASURED: CC50 at 24 h

Give its CC50 at 24 h value. Item: CC(C)c1ccccc1 [Cumene]
> 100 µM

Please report the recorded CC50 at 24 h for CCc1ccc(S(=O)(=O)O)cc1 [4-Ethylbenzenesulfonic acid] .
> 50 µM

I am curious: what CC50 at 24 h value has been reported for O=c1oc2cc(O)ccc2s1 [Thioxolone] ?
> 50 µM

Can you look up the measured CC50 at 24 h of O=C(O)C(Cc1cc(I)c(O)c(I)c1)c1ccccc1 (centres unmarked) [Iodoalphionic acid] for me?
> 50 µM

# query: CC50 at 24 h of entry C=CC(C)(O)CC/C=C(\C)CCC=C(C)C (centres unmarked) [Nerolidol]
> 90 µM

Please report the recorded CC50 at 24 h for NCCCC(N)(C(=O)O)C(F)F (centres unmarked) [Eflornithine hydrochloride] .
> 50 µM

Param item = Nc1ccncc1 [4-Aminopyridine] ; retrieve measured CC50 at 24 h.
> 90 µM

// CC50 at 24 h lookup, key: Cc1ccc(S(=O)(=O)NC(=O)N[C@@H](C)Cc2ccccc2)cc1 [Tosifen]
> 50 µM

Using the record for Cc1ccc2ncccc2c1 [6-Methylquinoline] , report its CC50 at 24 h.
> 90 µM

Report CC50 at 24 h for Cc1ccc(NC(=O)c2ccc(CN3CCN(C)CC3)cc2)cc1Nc1nccc(-c2cccnc2)n1 [Imatinib mesylate] please.
18.5 µM

CC50 at 24 h lookup needed for CCCOCCOCCOCCO [2-[2-(2-Propoxyethoxy)ethoxy]ethanol] , thanks.
> 90 µM

Given C=C(C)C(=O)NCCC[N+](C)(C)C , state its recorded CC50 at 24 h.
> 90 µM

Which CC50 at 24 h is reported for this compound? BrCBr [Dibromomethane]
> 90 µM

Consider the compound shown here: Cc1cc(Cl)ccc1N [4-Chloro-2-methylaniline hydrochloride] What is its recorded CC50 at 24 h?
> 90 µM

Which CC50 at 24 h is listed for CC(C)(C)[C@]1(O)CCN2C[C@H]3c4ccccc4CCc4cccc(c43)[C@@H]2C1 [Butaclamol hydrochloride] ?
22.9 µM

Need CC50 at 24 h, item CC(C)NCC(O)COc1ccccc1-n1cccc1 (centres unmarked) [Isamoltan]
> 50 µM

# lookup: CC50 at 24 h of CCCCCCCCCCCC[N+](C)(C)C [Dodecyltrimethylammonium chloride]
15.8 µM

Any idea what its CC50 at 24 h is? The compound is O=C(O)c1cc(Cl)cc([N+](=O)[O-])c1Cl [2,5-Dichloro-3-nitrobenzoic acid]
> 90 µM

Which CC50 at 24 h is listed for CO/N=C(\C(=O)N[C@@H]1C(=O)N2C(C(=O)O)=C(COC(C)=O)CS[C@H]12)c1csc(N)n1 [Cefotaxime sodium] ?
> 50 µM

###

- EXPERIMENT SUMMARY: in vitro
- CONDITION DETAILS: rat, gh3-tre-luc cells, AC50 (uM) modified / 1000
Where a name gives a salt, the structure may show the parent alone.
ATTRIBUTE MEASURED: CC50 at 24 h

Field: example entries. Status: answers known.
| COMPOUND | CC50 at 24 h |
| --- | --- |
| Clc1cccc(SC2CCNCC2)n1 [Anpirtoline] | > 50 µM |
| C[C@](N)(Cc1ccc(O)c(O)c1)C(=O)O [Methyldopa sesquihydrate] | > 90 µM |
| O=C1C=C2C=C[C@@H]3C[C@@]2(O1)[C@H]1CCCCN31 [Securinine] | 15.3 µM |
| OC[C@@H](O)[C@@H](O)CO [Erythritol] | > 90 µM |
| CNCC(=O)N[C@@H](CCCN=C(N)N)C(=O)N[C@H](C(=O)N[C@@H](Cc1ccc(O)cc1)C(=O)N[C@H](C(=O)N[C@@H](Cc1cnc[nH]1)C(=O)N1CCC[C@H]1C(=O)N[C@@H](C)C(=O)O)C(C)C)C(C)C [Saralasin] | > 50 µM |
| CN1CCCC1 [N-Methylpyrrolidine] | > 90 µM |

The record that follows has no CC50 at 24 h shown yet.
GET /values?readout=CC50 at 24 h&item= CC(=O)OCC(=O)NCCCOc1cccc(CN2CCCCC2)c1 [Roxatidine acetate hydrochloride]
> 50 µM

###

Measured CC50 at 24 h values are reported for all entries that follow.
- EXPERIMENT SUMMARY: in vitro
- CONDITION DETAILS: rat, gh3-tre-luc cells, AC50 (uM) modified / 1000
Structures can show the parent of a compound that is named as a salt.

Known results for compounds:
| COMPOUND | CC50 at 24 h |
| --- | --- |
| CC(=O)OCC(=O)[C@@]1(O)CC[C@H]2[C@@H]3CCC4=CC(=O)C=C[C@]4(C)[C@@]3(F)[C@@H](O)C[C@@]21C [Isoflupredone acetate] | > 20 µM |
| O=P(O)(O)CCCl [Ethephon] | > 90 µM |
| CCCCCBr [1-Bromopentane] | > 100 µM |
| O=c1cc[nH]c(=S)[nH]1 [Thiouracil] | > 90 µM |
| CN(C)CCn1nnnc1SCC1=C(C(=O)O)N2C(=O)[C@@H](NC(=O)Cc3csc(N)n3)[C@H]2SC1 [Cefotiam hydrochloride] | > 20 µM |

Find the recorded CC50 at 24 h belonging to CCOC(=O)c1ncn2c1CN(C)C(=O)c1c(I)cccc1-2 [Iomazenil] and report it.
> 50 µM

Request the reported CC50 at 24 h associated with CCN(CC)CCNc1ccc(CNC=O)c2sc3ccc(OC)cc3c(=O)c12 [SR271425]
11.7 µM

Quick one: CC50 at 24 h for COCC(=O)O[C@]1(CCN(C)CCCc2nc3ccccc3[nH]2)CCc2cc(F)ccc2[C@@H]1C(C)C [Mibefradil dihydrochloride] ?
1.9 µM

# query: CC50 at 24 h of entry COC(=O)c1cccc(Cl)c1 [Methyl 3-chlorobenzoate]
> 90 µM

Reported CC50 at 24 h, compound C#CC(O)CCCCC (centres unmarked) [1-Octyn-3-ol] : ____
> 90 µM

Entry O=C(O)COc1nc(Cl)c(Cl)cc1Cl [Triclopyr] : reported CC50 at 24 h = ?
> 90 µM

Consider the compound shown here: Cc1cc(NC(=O)C2=C(O)c3ccccc3S(=O)(=O)N2C)no1 [Isoxicam] What is its recorded CC50 at 24 h?
> 50 µM

Any idea what its CC50 at 24 h is? The compound is CC(C)[C@@H](N)C(=O)O [D-Valine]
> 50 µM

Query: CC50 at 24 h; subject: N#CCCNCCC#N [3,3'-Iminobispropanenitrile]
> 100 µM

###

// reported AC50 per item
- System: GH3-TRE-Luc cell line

Param item = O=C(CO)[C@@H](O)[C@H](O)[C@@H](O)C(=O)O [Calcium 5-ketogluconate] ; retrieve measured AC50.
> 50 µM

Entry under review: N[C@@H](Cc1cc(I)c(Oc2ccc(O)c(I)c2)c(I)c1)C(=O)[O-].[Na+] [3,3ʹ,5-Triiodo-L-thyronine sodium salt, reference compound] . Reported AC50?
> 92 µM

Please report the recorded AC50 for Cc1cc(NC(=O)C(=O)O)cc(C)c1Oc1ccc(O)c2c1CCC2 [CP-634384, reference compound] .
> 92 µM

###

- EXPERIMENT SUMMARY: in vitro
- CONDITION DETAILS: rat, gh3-tre-luc cells, AC50 (uM) modified / 1000
ATTRIBUTE MEASURED: CC50 at 24 h

| COMPOUND | CC50 at 24 h |
| --- | --- |
| COc1cc(C)c(/C=C/C(C)=C/C=C/C(C)=C/C(=O)O)c(C)c1C | > 50 µM |
| O=S(=O)(Oc1ccc(Cl)cc1Cl)c1ccccc1 [2,4-Dichlorophenyl benzenesulfonate] | > 90 µM |
| CCOC(=O)c1ccc(O)cc1 | > 90 µM |
| N=C(N)c1ccccc1 | > 90 µM |

Entry CC[N+](CC)(CC)CCC(O)(c1ccccc1)C1CCCCC1 (stereo not drawn) [Tridihexethyl chloride] has what CC50 at 24 h?
> 20 µM

What does the data say about its CC50 at 24 h? Entry: CC(=O)/C(C)=C/C1C(C)=CCCC1(C)C (stereo not drawn)
> 90 µM

###

- EXPERIMENT SUMMARY: in vitro
- CONDITION DETAILS: rat, gh3-tre-luc cells, AC50 (uM) modified / 1000
ATTRIBUTE MEASURED: CC50 at 24 h

| COMPOUND | CC50 at 24 h |
| --- | --- |
| CC(C)Cn1cnc2c1c(=O)n(C)c(=O)n2C | > 50 µM |
| COc1cc(NCCCC(C)N)c2ncccc2c1 (stereo not drawn) [Quinocide] | 15.1 µM |
| CCOCn1c(-c2ccc(Cl)cc2)c(C#N)c(Br)c1C(F)(F)F | 2.15 µM |
| O=C(NN1CCCC1)NS(=O)(=O)c1ccc(Cl)cc1 [Glyclopyramide] | > 50 µM |
| CC(=O)c1ccc2c(c1)Cc1ccccc1-2 | > 90 µM |

What value of measured CC50 at 24 h is listed for COc1cc([S+](C)[O-])ccc1-c1nc2ncccc2[nH]1 (stereo not drawn) ?
> 50 µM

Which value of CC50 at 24 h has been reported for Cc1cnc2c(C(=O)O)c(Cl)ccc2c1 in the records?
> 90 µM

Can you share its CC50 at 24 h? I mean this compound: CC(=O)OCCC1CCCCC1 [2-Cyclohexylethyl acetate]
> 90 µM

Request the reported CC50 at 24 h associated with O=C(NS(=O)(=O)/C=C/c1ccccc1)c1ccc(F)cc1Cl
> 90 µM

Tell me the measured CC50 at 24 h of CO[C@@]1(NC(=O)CSC(F)F)C(=O)N2C(C(=O)O)=C(CSc3nnnn3CCO)CO[C@@H]21 , please.
> 50 µM

Recorded CC50 at 24 h of CO/N=C(\C(=O)N[C@@H]1C(=O)N2C(C(=O)OCOC(=O)C(C)(C)C)=C(/C=C\c3scnc3C)CS[C@H]12)c1csc(N)n1 , please.
> 50 µM

For the compound O=C1C(N(CO)C(=O)NCO)N(CO)C(=O)N1CO (stereo not drawn) , what CC50 at 24 h is on record?
> 90 µM

Which CC50 at 24 h is listed for CCCCCCCCCCN ?
> 90 µM
